Reference source: paper PMC6271935

test system: Influenza A/hanfang/359/95; experiment: microbe, parasite or virus in culture; format: cell-based; conditions: Influenza A virus, MDCK
pIC50: −log10 of the molar value.
Listing of entries alongside the reported pIC50.
Readout Name: pIC50

INSERT INTO assay_data (compound, target_or_test_system, readout_name, reading) VALUES
  ('c1ccc2c(CNc3ccc4ncsc4c3)c3ccccc3cc2c1 [3k]', 'Influenza A/hanfang/359/95', 'pIC50', '< 6.39'),
  ('Cc1ccc(CNc2ccc3cc[nH]c3c2)o1 [1c]', 'Influenza A/hanfang/359/95', 'pIC50', '< 6.18'),
  ('Clc1ccc(CNc2ccc3cc[nH]c3c2)cc1 [1a, (4-Chlorobenzyl)-(1H-indol-6-yl)-amine]', 'Influenza A/hanfang/359/95', 'pIC50', '< 5.80');
